Experiment: Intrinsic clearance in human liver microsomes in presence of NADP/G6P/G6P dehydrogenase/MgCl2 by LC/MS analysis
Format: ADME, microsome
Settings: read-out: CLH
value type: microsomal CLint (µL/min/mg)

mol_smiles=COc1cccnc1-c1nc2ccc(-c3nc4c(C)ncc(C)n4n3)cc2[nH]1 unit_of_measurement=µL/min/mg readout_value=0.7
mol_smiles=Cc1ncc(C)n2nc(-c3ccc4[nH]c(-c5ccccc5)nc4c3)nc12 unit_of_measurement=µL/min/mg readout_value=34.4
mol_smiles=Cc1ncc(C)n2nc(-c3ccn4cc(-c5ccccc5)nc4n3)nc12 unit_of_measurement=µL/min/mg readout_value=1.8
mol_smiles=Cc1ncc(C)n2nc(-c3ccn4cc(-c5ccccc5)nc4c3)nc12 unit_of_measurement=µL/min/mg readout_value=11.6

----------
Test: Intrinsic clearance in mouse liver microsomes in presence of NADP/G6P/G6P dehydrogenase/MgCl2/metabolic phase 2 co-factor by LC/MS analysis
Type: ADME, microsome
Conditions: read-out: CLH
Measured microsomal CLint, listed per entry.
value type: microsomal CLint (µL/min/mg)

mol_smiles=Cc1ncc(C)n2nc(-c3ccn4cc(-c5ccccc5)nc4n3)nc12 readout_value=0.6
mol_smiles=Cc1ncc(C)n2nc(-c3ccn4cc(-c5ccccc5)nc4c3)nc12 readout_value=28.9

----------
Biological target: cAMP and cAMP-inhibited cGMP 3',5'-cyclic phosphodiesterase 10A (Homo sapiens, UniProt Q9Y233)
Sequence (Q9Y233 whole entry): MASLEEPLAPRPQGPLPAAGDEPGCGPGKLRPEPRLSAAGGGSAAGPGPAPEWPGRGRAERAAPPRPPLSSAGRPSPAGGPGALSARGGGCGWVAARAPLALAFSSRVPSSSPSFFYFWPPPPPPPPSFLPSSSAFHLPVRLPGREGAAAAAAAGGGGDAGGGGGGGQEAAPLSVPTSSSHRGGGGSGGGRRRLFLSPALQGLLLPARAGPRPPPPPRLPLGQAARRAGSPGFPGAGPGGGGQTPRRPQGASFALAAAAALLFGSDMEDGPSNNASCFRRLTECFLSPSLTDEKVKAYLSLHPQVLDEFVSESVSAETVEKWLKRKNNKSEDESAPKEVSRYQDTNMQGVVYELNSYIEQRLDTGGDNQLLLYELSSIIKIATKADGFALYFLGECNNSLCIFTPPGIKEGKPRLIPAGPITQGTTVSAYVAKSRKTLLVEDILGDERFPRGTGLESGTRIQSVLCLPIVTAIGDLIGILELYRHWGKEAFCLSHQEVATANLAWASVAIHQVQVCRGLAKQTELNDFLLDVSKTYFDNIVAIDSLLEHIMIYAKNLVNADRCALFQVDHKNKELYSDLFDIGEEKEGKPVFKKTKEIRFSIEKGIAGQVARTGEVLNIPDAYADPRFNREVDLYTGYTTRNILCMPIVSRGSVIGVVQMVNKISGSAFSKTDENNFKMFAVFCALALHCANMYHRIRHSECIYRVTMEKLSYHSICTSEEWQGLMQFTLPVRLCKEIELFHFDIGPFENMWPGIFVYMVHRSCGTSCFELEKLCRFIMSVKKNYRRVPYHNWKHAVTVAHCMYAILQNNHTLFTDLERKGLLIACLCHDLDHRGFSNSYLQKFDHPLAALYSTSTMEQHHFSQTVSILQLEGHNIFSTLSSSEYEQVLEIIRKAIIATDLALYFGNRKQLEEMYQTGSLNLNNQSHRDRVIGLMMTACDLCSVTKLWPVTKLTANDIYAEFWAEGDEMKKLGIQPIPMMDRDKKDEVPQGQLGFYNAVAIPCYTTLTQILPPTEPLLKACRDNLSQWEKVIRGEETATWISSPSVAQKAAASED
Assay: Inhibition of Ca2+/calmodulin-induced recombinant human full length N-terminal GST-tagged PDE10A1 expressed in baculovirus infected Sf9 cells using cAMP as substrate pretreated for 10 mins followed by substrate addition and measured after 40 mins by kinase-Glo luminescence assay
Settings: read-out: IC50
pIC50: −log10 of the molar value.
Measured pIC50, listed per entry.
value type: pIC50

mol_smiles=Cc1nc(-c2ccn3cc(-c4ccccc4)nc3n2)nc2ccccc12 comparator== readout_value=6.79
mol_smiles=Cc1ncc(C)n2nc(-c3ccc4nc(-c5cnc6ccccc6n5)[nH]c4c3)nc12 comparator=< readout_value=6.00
mol_smiles=Cc1ncc(C)n2nc(-c3ccc4nc(-c5ccccc5C(F)(F)F)[nH]c4c3)nc12 comparator=< readout_value=6.00
mol_smiles=Cc1ncc(C)n2nc(-c3ccn4cc(-c5ccccc5Br)nc4n3)nc12 comparator== readout_value=6.84
mol_smiles=COc1ccnc(-c2nc3ccc(-c4nc5c(C)ncc(C)n5n4)cc3[nH]2)c1 comparator=< readout_value=6.55
mol_smiles=Cc1ncc(C)n2nc(-c3ccn4cc(-c5ccc(F)cc5)nc4n3)nc12 comparator== readout_value=7.12
mol_smiles=Cc1ncc(C)n2nc(-c3ccc4nc(-c5cccc(Br)c5)[nH]c4c3)nc12 comparator== readout_value=6.84
mol_smiles=Cc1ncc(C)n2nc(-c3ccn4cc(-c5ccc(Br)cc5)nc4n3)nc12 comparator=< readout_value=6.00
mol_smiles=Cc1ncc(C)n2nc(-c3ccc4nc(-c5ncccc5F)[nH]c4c3)nc12 comparator== readout_value=7.16
mol_smiles=Cc1cnc(-c2nc3ccc(-c4nc5c(C)ncc(C)n5n4)cc3[nH]2)s1 comparator== readout_value=6.70
mol_smiles=Cc1ncc(C)n2nc(-c3ccc4nc(-c5nccn5C)[nH]c4c3)nc12 comparator== readout_value=6.55
mol_smiles=Cc1ncc(C)n2nc(-c3ccc4cc(-c5ccccc5)nn4c3)nc12 comparator== readout_value=6.24
mol_smiles=Cc1cc(C)n2nc(-c3ccn4cc(-c5ccccn5)nc4n3)nc2n1 comparator== readout_value=6.55
mol_smiles=Cc1ncc(C)n2nc(-c3ccn4cc(-c5ccccc5)nc4n3)nc12 comparator== readout_value=7.46
mol_smiles=Cc1ncc(C)n2nc(-c3ccn4nc(-c5ccccc5)nc4c3)nc12 comparator== readout_value=6.57
mol_smiles=Cc1cc(C)n2nc(-c3ccn4nc(-c5ccccc5)nc4c3)nc2n1 comparator== readout_value=6.42
mol_smiles=Cc1nc(-c2ccc3nc(-c4ccccc4)[nH]c3c2)nc2ccccc12 comparator== readout_value=6.50
mol_smiles=Cc1cc(C)n2nc(-c3ccn4cc(-c5nccs5)nc4n3)nc2n1 comparator== readout_value=6.34
mol_smiles=Cc1ncc(C)n2nc(-c3ccn4cc(-c5ccccn5)nc4n3)nc12 comparator== readout_value=6.94
mol_smiles=COc1ccccc1-c1cn2ccc(-c3nc4c(C)ncc(C)n4n3)nc2n1 comparator== readout_value=7.28
mol_smiles=Cc1ncc(C)n2nc(-c3ccc4nc(-c5ccccc5OC(F)(F)F)[nH]c4c3)nc12 comparator== readout_value=6.55
mol_smiles=Cc1ncc(C)n2nc(-c3ccc4nc(-c5cncs5)[nH]c4c3)nc12 comparator== readout_value=6.87
mol_smiles=Cc1ncc(C)n2nc(-c3ccc4nc(-c5cccs5)[nH]c4c3)nc12 comparator== readout_value=7.55
mol_smiles=Cc1cc(C)n2nc(-c3ccn4nc(-c5ncccn5)nc4c3)nc2n1 comparator=< readout_value=5.30
mol_smiles=Cc1ncc(C)n2nc(-c3ccn4cc(-c5cccc(Cl)c5)nc4n3)nc12 comparator== readout_value=6.97
mol_smiles=Cc1ncc(C)n2nc(-c3ccc4nc(-c5cnccn5)[nH]c4c3)nc12 comparator=< readout_value=6.00
mol_smiles=Cc1ncc(C)n2nc(-c3ccc4nc(Cc5ccccc5)[nH]c4c3)nc12 comparator=< readout_value=6.00
mol_smiles=COc1ccc(OC)c(-c2cn3ccc(-c4nc5c(C)ncc(C)n5n4)nc3n2)c1 comparator=< readout_value=6.55
mol_smiles=Cc1nc(-c2ccn3nc(-c4ccccc4)nc3c2)nc2ccccc12 comparator== readout_value=6.05
mol_smiles=Cc1ncc(C)n2nc(-c3ccc4nc(-c5cccnc5)[nH]c4c3)nc12 comparator== readout_value=6.78
mol_smiles=Cc1csc(-c2nc3ccc(-c4nc5c(C)ncc(C)n5n4)cc3[nH]2)n1 comparator== readout_value=6.93
mol_smiles=Cc1cc(C)n2nc(-c3ccc4cc(-c5ccccc5)nn4c3)nc2n1 comparator== readout_value=6.11
mol_smiles=Cc1ncc(C)n2nc(-c3ccc4nc(-c5ccc(Cl)s5)[nH]c4c3)nc12 comparator== readout_value=6.79
mol_smiles=Cc1ncc(C)n2nc(-c3ccc4nc(-c5ccco5)[nH]c4c3)nc12 comparator== readout_value=7.17
mol_smiles=Cc1ncc(C)n2nc(-c3ccn4cc(-c5ccc(F)cc5Cl)nc4n3)nc12 comparator=< readout_value=6.00
mol_smiles=Cc1ccccc1-c1nc2ccc(-c3nc4c(C)ncc(C)n4n3)cc2[nH]1 comparator== readout_value=6.62
mol_smiles=Cc1ncc(C)n2nc(-c3ccc4[nH]c(-c5cocn5)nc4c3)nc12 comparator=< readout_value=6.52
mol_smiles=Cc1ncc(C)n2nc(-c3ccc4nc(-c5cscn5)[nH]c4c3)nc12 comparator== readout_value=6.57
mol_smiles=COc1cccnc1-c1nc2ccc(-c3nc4c(C)ncc(C)n4n3)cc2[nH]1 comparator== readout_value=7.40
mol_smiles=Cc1ncc(C)n2nc(-c3ccc4nc(-c5ccccc5C#N)[nH]c4c3)nc12 comparator== readout_value=6.42
mol_smiles=Cc1ncc(C)n2nc(-c3ccn4cc(-c5nccs5)nc4n3)nc12 comparator== readout_value=6.87

----------
Test: Intrinsic clearance in rat liver microsomes in presence of NADP/G6P/G6P dehydrogenase/MgCl2 by LC/MS analysis
Format: ADME, microsome
Conditions: read-out: CLH
Would you mind labelling by microsomal CLint? At or over 6 µL/min/mg is Y, under is N.

mol_smiles=COc1ccccc1-c1cn2ccc(-c3nc4c(C)ncc(C)n4n3)nc2n1 group_label=Y
mol_smiles=Cc1ncc(C)n2nc(-c3ccn4cc(-c5ccccc5Br)nc4n3)nc12 group_label=N
mol_smiles=Cc1ncc(C)n2nc(-c3ccn4cc(-c5ccccc5)nc4n3)nc12 group_label=N
mol_smiles=Cc1ncc(C)n2nc(-c3ccc4[nH]c(-c5ccccn5)nc4c3)nc12 group_label=Y
mol_smiles=Cc1ncc(C)n2nc(-c3ccn4cc(-c5cccc(Cl)c5)nc4n3)nc12 group_label=Y
mol_smiles=Cc1ncc(C)n2nc(-c3ccc4nc(-c5ncccc5F)[nH]c4c3)nc12 group_label=N
mol_smiles=Cc1ncc(C)n2nc(-c3ccn4cc(-c5ccccc5)nc4c3)nc12 group_label=Y
mol_smiles=COc1cccnc1-c1nc2ccc(-c3nc4c(C)ncc(C)n4n3)cc2[nH]1 group_label=N
mol_smiles=Cc1ncc(C)n2nc(-c3ccn4cc(-c5ccc(Br)cc5)nc4n3)nc12 group_label=Y
mol_smiles=Cc1ncc(C)n2nc(-c3ccc4nc(-c5ccco5)[nH]c4c3)nc12 group_label=Y
mol_smiles=Cc1nc(-c2ccc3nc(-c4ccccc4)[nH]c3c2)nc2ccccc12 group_label=Y
mol_smiles=Cc1ncc(C)n2nc(-c3ccc4[nH]c(-c5ccccc5)nc4c3)nc12 group_label=Y
mol_smiles=Cc1ncc(C)n2nc(-c3ccn4cc(-c5ccc(F)cc5)nc4n3)nc12 group_label=N
mol_smiles=Cc1ncc(C)n2nc(-c3ccn4cc(-c5ccc(F)cc5Cl)nc4n3)nc12 group_label=Y
